Tested on: 786-0 renal
test-details: NCI-60 one-dose screen, 48 h (100 = growth as untreated, 0 = no growth, -100 = all killed)
condition-set: 10 µM unless noted
About 83,000 compounds went through this panel and 20% of them were active in at least one assay; those are over-represented in the sample as a whole.
growth by entry:

| chemical-structure | growth, % |
| --- | --- |
| O=C1Nc2ccc(F)cc2/C1=N/c1nnc(Sc2ccccc2)s1 | 105 |
| Nc1nc(C(=O)N/N=C/c2ccc(N3CCOCC3)cc2)nn1-c1ccc(S(N)(=O)=O)cc1 | 95.7 |
| Cn1c(=O)c2c(c3ccccc31)OC(N)=C(C#N)C21C(=O)c2ccccc2C1=O | 95.1 |
| NNC(=S)N/N=C/c1ccccn1 | 24.4 |
| CCNC(=O)Oc1ccc(/C(=C(/C)Cc2ccc(OC)cc2)c2ccc(OCCN3CCCCCC3)cc2)cc1 | 72 |
| COc1cccc(/C=C2\COc3ccc(O)cc3C2=O)c1 | 78.3 |
| C=C1C(=O)O[C@H]2[C@H]1CC/C(COC(=O)NCCCCCCCCNC(=O)OC/C1=C/CC[C@@]3(C)O[C@H]3[C@H]3OC(=O)C(=C)[C@@H]3CC1)=C\CC[C@@]1(C)O[C@@H]21 | -89.9 |
| CCCCCCCCCCCCCCCCOC(=O)c1c(C)[nH]c(/C=C2\N=C(c3ccc[nH]3)C=C2OC)c1C | 11.3 |
| O=C(/C=C/c1ccccc1)Nc1ncc(Cc2ccccc2)s1 | 24.5 |

---

growth by entry:
System: MALME-3M melanoma
test-details: NCI-60 one-dose screen, 48 h (100 = growth as untreated, 0 = no growth, -100 = all killed)
condition-set: 10 µM unless noted
Experimental: Cells are grown in 96 well plates and exposed to the test compound for 48 hours. Compounds are tested at a single concentration, which is 10^-5 M for most compounds. The reported endpoint is percent growth (GI% or GIPRCNT), where numbers from 0 - 100% represent growth inhibition, and numbers from -100% - 0 represent cell death. For example, a value of 40 represents 60% growth inhibition. A value of 0 means no net growth occurred over the course of the experiment. […]
This is part of a sample that, as a whole, favours compounds with a hit. Of some 83,000 tested, about 20% had one in any assay. The source made the active and inactive calls. How the source made its calls: active means growth percent below 10; inactive means the rest.
measured-quantity: growth

| compound | observed-measurement |
| --- | --- |
| COc1ccc(C2=C/C(=C\c3ccc(Cl)cc3)C(=O)N2/N=C/c2ccc(Cl)cc2)cc1 | 96.4% (inactive) |
| Cc1cc(C(=O)Nc2cc(Nc3ncccc3-c3ncnc4nc[nH]c34)ccc2F)cc(C(F)(F)F)c1 | 108% (inactive) |
| COCC[C@H]1CCC/C=C/[C@@H]2C[C@H](O)C[C@H]2[C@H](O)/C=C/C(=O)O1 | -24.4% (active) |
| Cc1ccc(N=Nc2c(N)nn(-c3ccccc3)c2N)cc1 | 39.3% (inactive) |
| COc1ccc(/C=C/C(=O)c2ccc(Nc3nc(Nc4ccc(F)cc4)nc(Nc4ccc(Cl)cc4)n3)cc2)cc1 | 164% (inactive) |
| C=C(CO)[C@@H]1CC[C@]2(COC3CCCCO3)CC[C@]3(C)[C@H](CC[C@@H]4[C@@]5(C)C=C(C=O)C(=O)C(C)(C)[C@@H]5CC[C@]43C)[C@@H]12 (some centres undefined) | -78.4% (active) |
| OC(c1ccccc1)(c1ccccc1)c1ccccc1-c1ccccc1 | 120% (inactive) |
| O=c1oc2c(cnc3ccccc32)cc1-c1cccs1 | 103% (inactive) |
| CC1COCC(C)N1C1=C(Cl)C(=O)c2ccccc2C1=O (centres undefined) | 75.3% (inactive) |

---

Tested on: UACC-62 melanoma
test-details: NCI-60 one-dose screen, 48 h (100 = growth as untreated, 0 = no growth, -100 = all killed)
condition-set: 10 µM unless noted
Compounds without any hit were thinned out: in the full panel of roughly 83,000, 20% have a hit.
Label class 1 when growth is strictly below 70%; at or above that, label class 0.

| molecule | label |
| --- | --- |
| CCNc1nc(-c2ccc(F)cc2)c(C#N)c(=O)n1C | class 1 |
| COc1ccc(C2=CN3CC=CCC3CC2=O)cc1 (stereo not given) | class 0 |
| C=CC1(C)C(O[Si](C)(C)C(C)(C)C)CC2C3OC(=O)NC31c1cccc3c1[C@H](C(=O)N3C)C2(C)C (stereo not given in full) | class 1 |
| O=C1/C(=C/c2ccc(C(F)(F)F)cc2)COc2ccc(O)c(O)c21 | class 1 |

---

Tested on: SW-620 colon
test-details: NCI-60 one-dose screen, 48 h (100 = growth as untreated, 0 = no growth, -100 = all killed)
condition-set: 10 µM unless noted
About 83,000 compounds went through this panel and 20% of them were active in at least one assay; those are over-represented in the sample as a whole.

| molecule | tested-system | growth, % |
| --- | --- | --- |
| CC(=O)Nc1c(Cl)cc(Cl)c2c1Cc1cc([N+](=O)[O-])ccc1-2 | SW-620 colon | 80.6 |
| CN(C)c1ccc(/C=C/C(=O)c2ccccc2)cc1 | SW-620 colon | 63.5 |
| COc1cc(/C=C\c2cc(/C=C\c3ccc(O)c(OC)c3)n(C(=O)CNc3ccc(Cl)cc3)n2)ccc1O | SW-620 colon | 24.9 |
| Oc1c(I)cc(-c2nc3ccccc3s2)cc1CN(Cc1ccccn1)Cc1ccccn1 | SW-620 colon | 21.3 |
| COc1cc(-c2nc3ccc(C)cc3[nH]2)ccc1OCC(=O)N=Nc1c(O)[nH]c2ccc(Cl)cc12 | SW-620 colon | -58.9 |
| CC1=NN(c2ccc(Cl)cc2)CC1(C)N=O (stereo unspecified) | SW-620 colon | 43.7 |
| CCOC(=O)C1=C(c2ccccc2)N=c2s/c(=C/c3ccc(Br)cc3)c(=O)n2C1c1ccc(O)cc1 (stereo unspecified) | SW-620 colon | 94.6 |
| Brc1ccc(-c2cnc3nonc3n2)cc1 | SW-620 colon | 77.6 |
| N#Cc1c(NC(=O)c2cccs2)[n+]([O-])c2ccc(Cl)cc2[n+]1[O-] | SW-620 colon | 85.3 |
| Nc1c(C(=O)Nc2cccc3ncccc23)sc2nc3c(cc12)C(=O)CCC3 | SW-620 colon | 39.1 |
| Cc1ncc(C(=O)Nc2ccc(CN3CCN(C)CC3)c(C(F)(F)F)c2)cc1C#Cc1cnc(N)c2cnccc12 | SW-620 colon | -55.3 |
| COC(=O)c1ccc2c(c1)c1c(C)c3ccncc3c(C)c1n2C | SW-620 colon | 21 |
| COc1cc(C#Cc2ccc(=O)oc2C#Cc2ccccc2)cc(OC)c1OC | SW-620 colon | 8.07 |
| CCN(CC)CCCC(C)Nc1ccc2cc(OC)ccc2n1 (stereo unspecified) | SW-620 colon | 94.4 |
| CC12CCC(/C(=C/NNc3ccc([N+](=O)[O-])cc3[N+](=O)[O-])C1=O)C2(C)C (stereo unspecified) | SW-620 colon | 64.8 |
| O=C(N/N=C/c1ccc([N+](=O)[O-])cc1)c1ccc2nc(-c3ccc(Cl)cc3)[nH]c2c1 | SW-620 colon | 12.7 |
| CC(=O)N(Cc1ccccc1)c1nc2ccc(O)c(CN(C)C)c2s1 | SW-620 colon | 94.7 |
| NNC(=S)N/N=C/c1ccccn1 | SW-620 colon | 51.3 |
| Cn1c(/C=C/[N+](=O)[O-])cc2ccccc21 | SW-620 colon | -70.8 |
| COc1cc(Nc2ncccc2NC(=O)c2cn(Cc3cccc(Oc4ccccc4)c3)nn2)cc(OC)c1 | SW-620 colon | 86.1 |
| CC(C)CSc1oc(-c2ccccc2)nc1S(=O)(=O)c1ccccc1 | SW-620 colon | 97.2 |
| O=C1Nc2ccccc2/C1=C/c1cn(C[C@@H](O)Cn2c3ccccc3c(=O)c3ccccc32)c2ccccc12 | SW-620 colon | 78.7 |
| C=C(C)[C@@H]1CC[C@]2(CO)CC[C@]3(C)[C@H](CC[C@@H]4[C@@]5(C)CCC(NCCc6ccc(O)cc6)C(C)(C)[C@@H]5CC[C@]43C)[C@@H]12 (stereo partly specified) | SW-620 colon | -80 |
| O=C(Cn1nnc2ccccc21)N/N=C/c1ccccc1F | SW-620 colon | 96.7 |
| CCCCCCCCn1ccc2cc(NC(=O)Cn3cc(CN4CCC(C)CC4)nn3)ccc21 | SW-620 colon | -72.1 |
| CC(C)(C)c1cc(C=Nc2cccc(C(F)(F)F)c2)c(O)c(C(C)(C)C)c1 | SW-620 colon | 101 |
| O=C(NCc1ccccc1O)c1cccc2ccccc12 | SW-620 colon | 87.6 |
| Cc1ccc(/C=C2\CN(C(=O)C(Cl)Cl)C/C(=C\c3ccc(C)cc3)C2=O)cc1 | SW-620 colon | -66.6 |
| O=C(CCC(=O)c1nc2ncccc2[nH]1)NN1C(=O)CSC1c1ccc(Cl)cc1 (stereo unspecified) | SW-620 colon | 81.4 |
| CCOC(=O)c1c(NC(=O)CSc2n[nH]c3nc4ccccc4n23)sc(CC)c1C | SW-620 colon | 104 |
| O=C(CCl)Nc1ccc2c(Nc3cc(O)ccc3Cl)ncnc2c1 | SW-620 colon | -60.6 |
| CNC(=O)c1c(NC(=O)c2ccc(C(C)(C)C)cc2)sc2c(CN(C)C)c(O)ccc12 | SW-620 colon | -85.8 |
| CCn1cc(C2=C(c3cn(C)c4ncccc34)C(=O)NC2=O)c2cccnc21 | SW-620 colon | 92.4 |
| N#C/C(=C\c1ccc(-c2ccc(Cl)cc2)o1)c1ccc(Cl)cc1 | SW-620 colon | 66.2 |
| Cc1ccc(-c2nc(C#N)c(S(=O)(=O)NCCO)o2)cc1 | SW-620 colon | 33.8 |
| N#Cc1nc(-c2ccc(F)cc2)oc1S(=O)(=O)N1CCN(c2ccc(F)cc2)CC1 | SW-620 colon | 19 |
| O=C(O)C1CN(c2cccc(Cl)c2)N(c2cccc(Cl)c2)C1=O (stereo unspecified) | SW-620 colon | 97.8 |
| C/C(=C(\c1ccc(OCCN2CCCCCC2)cc1)c1ccc(OC(=O)Cc2ccccc2)cc1)c1ccc(Cl)cc1 | SW-620 colon | -34.7 |
| COc1ccc(C2=CN3CC=CCC3CC2=O)cc1 (stereo unspecified) | SW-620 colon | 101 |
| CCOC(=O)n1cc(-c2nonc2-c2cn(C)c3ccccc23)c2ccccc21 | SW-620 colon | 18.8 |
| Cn1cc(-c2nonc2-c2c[nH]c3ccccc23)c2ccccc21 | SW-620 colon | 22.4 |
